Catalogue of IC50 readings, one per entry.
target: Cathepsin B (Homo sapiens, UniProt P07858)
Form entry: value (nM) — number only.

Completed entries (count: 2):
COc1cccc2[nH]c(C(=O)N[C@@H](CC(C)C)C(=O)N[C@@H](C[C@@H]3CCCNC3=O)C(=O)COC(=O)c3c(C)cc(C)nc3C)cc12    201
COc1cccc2[nH]c(C(=O)N[C@@H](CC(C)C)C(=O)N[C@@H](C[C@@H]3CCCNC3=O)C(=O)COC(=O)C3(C(F)(F)F)CCCCC3)cc12    2850

// switching to the query compound
Problem: What reported IC50 corresponds to COc1cccc2[nH]c(C(=O)N[C@@H](CC(C)C)C(=O)N[C@@H](C[C@@H]3CCCNC3=O)C(=O)COC(=O)c3c(C(F)(F)F)cccc3C(F)(F)F)cc12 on Cathepsin B (Homo sapiens, UniProt P07858)?
Solution: 464

---

assay: Dissociation constant, pKa of the compound; format: physicochemical
Catalogue of pKa readings, one per entry.
// no unit string in output, number only

Completed entries (count: 3):
COc1cccc2[nH]c(C(=O)N[C@@H](CC(C)C)C(=O)N[C@@H](C[C@@H]3CCCNC3=O)C(=O)COC(=O)c3ccccc3)cc12    4.2
COc1cccc2[nH]c(C(=O)N[C@@H](CC(C)C)C(=O)N[C@@H](C[C@@H]3CCCNC3=O)C(=O)COC(=O)c3ccncc3)cc12    1.77
COc1cccc2[nH]c(C(=O)N[C@@H](CC(C)C)C(=O)N[C@@H](C[C@@H]3CCCNC3=O)C(=O)COC(=O)c3c(C)nn(C)c3C)cc12    2.2

Problem: pKa for COc1cccc2[nH]c(C(=O)N[C@@H](CC(C)C)C(=O)N[C@@H](C[C@@H]3CCCNC3=O)C(=O)COC(=O)c3ccccn3)cc12 ?
Solution: 0.99

Problem: pKa for COc1cccc2[nH]c(C(=O)N[C@@H](CC(C)C)C(=O)N[C@@H](C[C@@H]3CCCNC3=O)C(=O)COC(=O)c3cccnc3)cc12 ?
Solution: 2

Problem: pKa for COc1cccc2[nH]c(C(=O)N[C@@H](CC(C)C)C(=O)N[C@@H](C[C@@H]3CCCNC3=O)C(=O)COC(=O)C(C)(C)C#N)cc12 ?
Solution: 2.4

Problem: pKa for COc1cccc2[nH]c(C(=O)N[C@@H](CC(C)C)C(=O)N[C@@H](C[C@@H]3CCCNC3=O)C(=O)COC(=O)c3c(C)nc(C)nc3C)cc12 ?
Solution: 2

Problem: pKa for COc1cccc2[nH]c(C(=O)N[C@@H](CC(C)C)C(=O)N[C@@H](C[C@@H]3CCCNC3=O)C(=O)COC(=O)C3(C)OCCCO3)cc12 ?
Solution: 2.7

Problem: pKa for COc1cccc2[nH]c(C(=O)N[C@@H](CC(C)C)C(=O)N[C@@H](C[C@@H]3CCCNC3=O)C(=O)COC(=O)C(C)(C)C(F)(F)F)cc12 ?
Solution: 3.2

Problem: pKa for COc1cccc2[nH]c(C(=O)N[C@@H](CC(C)C)C(=O)N[C@@H](C[C@@H]3CCCNC3=O)C(=O)COC(=O)c3c(Cl)cccc3Cl)cc12 ?
Solution: 1.26

Problem: pKa for COc1cccc2[nH]c(C(=O)N[C@@H](CC(C)C)C(=O)N[C@@H](C[C@@H]3CCCNC3=O)C(=O)COC(=O)c3c(C(F)(F)F)cccc3C(F)(F)F)cc12 ?
Solution: 1.9

Problem: pKa for COc1cccc2[nH]c(C(=O)N[C@@H](CC(C)C)C(=O)N[C@@H](C[C@@H]3CCCNC3=O)C(=O)COC(=O)c3c(C)cc(C)nc3C)cc12 ?
Solution: 1.7

---

Catalogue of remaining at 2 h readings, one per entry.
experiment: Metabolic stability in human plasma measured at 2 hrs by LC-MS analysis; type: ADME, cell-free; details: read-out: Stability
Form entry: value (%) — number only.

Problem: remaining at 2 h for COc1cccc2[nH]c(C(=O)N[C@@H](CC(C)C)C(=O)N[C@@H](C[C@@H]3CCCNC3=O)C(=O)COC(=O)c3cccnc3)cc12 ?
Solution: 2

Problem: remaining at 2 h for COc1cccc2[nH]c(C(=O)N[C@@H](CC(C)C)C(=O)N[C@@H](C[C@@H]3CCCNC3=O)C(=O)COC(=O)C3(C(F)(F)F)CCCCC3)cc12 ?
Solution: 97

Problem: remaining at 2 h for COc1cccc2[nH]c(C(=O)N[C@@H](CC(C)C)C(=O)N[C@@H](C[C@@H]3CCCNC3=O)C(=O)COC(=O)C(C)(C)C(F)(F)F)cc12 ?
Solution: 25

---

assay: Microsomal stability in CD-1 mouse liver microsomes assessed as half life at 1 uM measured upto 60 mins in presence of NADPH by LC-MS/MS analysis; type: ADME, Microsome; settings: CD-1, mouse, liver microsomes
Catalogue of half-life at 1 µM readings, one per entry.
Form entry: value (min) — number only.

Completed entries (count: 2):
COc1cccc2[nH]c(C(=O)N[C@@H](CC(C)C)C(=O)N[C@@H](C[C@@H]3CCCNC3=O)C(=O)COC(=O)c3c(C(F)(F)F)cc(C)nc3C)cc12    1
COc1cccc2[nH]c(C(=O)N[C@@H](CC(C)C)C(=O)N[C@@H](C[C@@H]3CCNC3=O)C(=O)COC(=O)c3c(C(F)(F)F)cc(C)nc3C)cc12    1.1

// switching to the query molecule
Problem: half-life at 1 µM for COc1cccc2[nH]c(C(=O)N[C@@H](CC(C)C)C(=O)N[C@@H](C[C@@H]3CCCNC3=O)C(=O)COC(=O)c3c(C)cc(C)nc3C)cc12 ?
Solution: 1.1

---

Catalogue of logD readings, one per entry.
experiment: Lipophilicity, log D of the compound at phosphate buffer pH 7.4 by shake flask method based LC-MS/MS analysis; format: physicochemical

Completed entries (count: 4):
COc1cccc2[nH]c(C(=O)N[C@@H](CC(C)C)C(=O)N[C@@H](C[C@@H]3CCCNC3=O)C(=O)COC(=O)c3c(Cl)cccc3Cl)cc12    > 5.07
COc1cccc2[nH]c(C(=O)N[C@@H](CC(C)C)C(=O)N[C@@H](C[C@@H]3CCNC3=O)C(=O)COC(=O)c3c(C(F)(F)F)cc(C)nc3C)cc12    4.57
COc1cccc2[nH]c(C(=O)N[C@@H](CC(C)C)C(=O)N[C@@H](C[C@@H]3CCCNC3=O)C(=O)COC(=O)c3c(C)cc(C)nc3C)cc12    4.41
COc1cccc2[nH]c(C(=O)N[C@@H](CC(C)C)C(=O)N[C@@H](C[C@@H]3CCCNC3=O)C(=O)COC(=O)c3c(C(F)(F)F)cc(C)nc3C)cc12    4.11

// switching to the query molecule
Problem: logD for COc1cccc2[nH]c(C(=O)N[C@@H](CC(C)C)C(=O)N[C@@H](C[C@@H]3CCCNC3=O)C(=O)COC(=O)C(C)(C)C(F)(F)F)cc12 ?
Solution: 4.89

---

Catalogue of half-life at 3 µM readings, one per entry.
test: Metabolic stability in CD-1 mouse Hepatocytes assessed as half life at 3 uM measured upto 90 mins by LC-MS/MS analysis; format: ADME, cell-based, Hepatocyte; details: CD-1, mouse
Form entry: value (min) — number only.

COc1cccc2[nH]c(C(=O)N[C@@H](CC(C)C)C(=O)N[C@@H](C[C@@H]3CCNC3=O)C(=O)COC(=O)c3c(C(F)(F)F)cc(C)nc3C)cc12    1.9
COc1cccc2[nH]c(C(=O)N[C@@H](CC(C)C)C(=O)N[C@@H](C[C@@H]3CCCNC3=O)C(=O)COC(=O)c3c(Cl)cccc3Cl)cc12    2.3
COc1cccc2[nH]c(C(=O)N[C@@H](CC(C)C)C(=O)N[C@@H](C[C@@H]3CCCNC3=O)C(=O)COC(=O)c3c(C(F)(F)F)cc(C)nc3C)cc12    1.9

Problem: half-life at 3 µM for COc1cccc2[nH]c(C(=O)N[C@@H](CC(C)C)C(=O)N[C@@H](C[C@@H]3CCCNC3=O)C(=O)COC(=O)c3c(C)cc(C)nc3C)cc12 ?
Solution: 2.7

---

experiment: Stability in CD-1 mouse plasma assessed as half life at 2 uM measured upto 120 mins by LC-MS/MS analysis; assay type: ADME, cell-free
measured metric: half-life at 2 µM

Completed entries (count: 2):
COc1cccc2[nH]c(C(=O)N[C@@H](CC(C)C)C(=O)N[C@@H](C[C@@H]3CCCNC3=O)C(=O)COC(=O)c3c(C)cc(C)nc3C)cc12    > 289 min
COc1cccc2[nH]c(C(=O)N[C@@H](CC(C)C)C(=O)N[C@@H](C[C@@H]3CCCNC3=O)C(=O)COC(=O)c3c(C(F)(F)F)cc(C)nc3C)cc12    > 289 min

Problem: half-life at 2 µM for COc1cccc2[nH]c(C(=O)N[C@@H](CC(C)C)C(=O)N[C@@H](C[C@@H]3CCNC3=O)C(=O)COC(=O)c3c(C(F)(F)F)cc(C)nc3C)cc12 ?
Solution: > 289 min

Reference for the values: ChEMBL document CHEMBL5154637
